FYI, the data here is from patent US20240018147A1.

solubility values for the compounds below.
assay method text: Solubility in water at 25° C.
Assay type: physicochemical

compound	solubility / µg/mL
Nc1ncnc2c1c(-c1ccc(Oc3ccccc3)cc1)nn2C1CCN(C2CN(C3CN(c4ccc5c(c4)C(=O)N(C4CCC(=O)NC4=O)C5=O)C3)C2)CC1.O=C(O)C[C@H](O)C(=O)O (stereo not drawn)	158
Nc1ncnc2c1c(-c1ccc(Oc3ccccc3)cc1)nn2C1CCN(C2CN(C3CN(c4ccc5c(c4)C(=O)N(C4CCC(=O)NC4=O)C5=O)C3)C2)CC1 (stereo not drawn) [amorphous form of compound 1]	9
Nc1ncnc2c1c(-c1ccc(Oc3ccccc3)cc1)nn2C1CCN(C2CN(C3CN(c4ccc5c(c4)C(=O)N(C4CCC(=O)NC4=O)C5=O)C3)C2)CC1.O=C(O)C(O)C(O)C(=O)O (stereo not drawn)	143
